Source: the Biogen ADME set (Fang et al. 2023)

In this section, each of the compounds is paired with its reported MDR1-MDCK efflux ratio.
Observable: MDR1-MDCK efflux ratio

>>> assay_value("COc1ccc(C(=O)Nc2cc(-c3ccc(F)c(F)c3)no2)cc1")
0.43
>>> assay_value("N#CCN(C(=O)c1cn(-c2ccc(Br)cc2)cn1)C1CC1")
1.04
>>> assay_value("CN(CCc1ccccn1)c1cnc2ccccc2n1")
0.64
>>> assay_value("COc1ccc(-c2cccc(C3CCCN(CC(=O)Nc4ccccn4)C3)n2)cc1 (centres undefined)")
0.833
>>> assay_value("O=C1NCCCCC1NC(=O)N1CCc2sccc2C1 (centres undefined)")
4.48
>>> assay_value("CN1CCC(CNc2nccc3cccnc23)CC1")
0.854
>>> assay_value("Fc1ccc2[nH]c(CO[C@H]3CN(Cc4ccccc4)C[C@H]3F)nc2c1")
0.885
>>> assay_value("CS(=O)(=O)N(CC(=O)Nc1ccccc1C(=O)NCc1ccco1)c1ccc(F)cc1")
9.61
>>> assay_value("CCc1nnc2c3ccccc3nc(Nc3ccc(OC)cc3)n12")
0.092
>>> assay_value("CSc1ccc(CN(CCO)C(=O)CCc2cccc(F)c2)cc1")
0.961
>>> assay_value("COc1cc(NC(=O)c2ccc(F)cc2C)ncn1")
0.558
>>> assay_value("Cc1sc2ncnc(OCC(=O)Nc3ccc4c(c3)OCO4)c2c1C")
0.986
>>> assay_value("Cn1c(=O)n(C)c2cc(CN3CCC(c4ccc(Cc5ccccc5F)cn4)CC3)ccc21")
6.24
>>> assay_value("Nc1ncnc2c1c(-c1ccc(Oc3ccccc3)cc1)nn2[C@@H]1CCCNC1")
21

###

In this section, each of the compounds is paired with its reported aqueous solubility.
- Condition summary: pH 6.8
Observable: aqueous solubility (µg/mL)

>>> assay_value("O=C(c1cccc(N2CCNC2=O)c1)N1CCc2ccccc2C1")
42.3
>>> assay_value("O=C(c1cc2ccccc2[nH]1)N1C[C@@H](O)[C@H](N2CCOCC2)C1")
45.6
>>> assay_value("COc1ccc(-c2csc(CC(N)=O)n2)cc1")
31.3
>>> assay_value("Cc1ccccc1N(CC(=O)O)S(C)(=O)=O")
44.7
>>> assay_value("O=C(Nc1nc2ccccc2[nH]1)C1CC(=O)N(c2cccc(C(F)(F)F)c2)C1 (configuration not stated)")
0.82
>>> assay_value("Cc1nn(C)cc1CNc1nc(-c2cnccn2)nc2sc3c(c12)CCCC3")
50.6
>>> assay_value("Cc1cc(CNc2cc(C(=O)N(C)C)ccn2)sc1Br")
47.3
>>> assay_value("Cc1cccc(OCCCNc2cc(Cn3c(C)nc4ccccc43)nc(N)n2)c1")
35.5
>>> assay_value("Cn1c(-c2ccccc2)cnc1NCc1ccccc1")
27.7
>>> assay_value("CN(Cc1ccc(Cl)cc1)C(=O)c1ccc(-n2ccnc2)nc1")
65.1
>>> assay_value("COc1ccc(-c2nc(C3CCN(C(=O)c4sc(C)nc4C)CC3)[nH]c2C(N)=O)cc1")
61.8
>>> assay_value("CCOC(=O)C1(Cc2cc(-c3cccc(F)c3)no2)CCN(Cc2ccccc2O)CC1")
0.68
>>> assay_value("C=CC(=O)N1C[C@H](Nc2ncnc3[nH]ccc23)CC[C@@H]1C")
53.7
>>> assay_value("CCNC(=O)c1cc(C2CC2)nc2c1c(C)nn2-c1ccccn1")
54.1
>>> assay_value("COc1nc(C)nc(N(C)Cc2nccs2)c1C")
29.8
>>> assay_value("O=C(NCC1=CCCN(Cc2cc(F)ccc2Cl)C1)c1ccco1")
37.8
>>> assay_value("CCc1cnc(NCc2ccc(CN3CCCC3)cc2)nc1")
31.8
>>> assay_value("CCOc1ncccc1C(=O)Nc1sccc1C#N")
1.13
>>> assay_value("O=C(NCc1cccc(F)c1)c1[nH]nnc1-c1ccccc1")
20.9
>>> assay_value("C[C@@H](CN1CCC(n2c(=O)[nH]c3cc(Cl)ccc32)CC1)NC(=O)c1ccc2ccccc2c1")
3.85
>>> assay_value("CCc1noc(CN2CCCN(C(C)=O)c3ccccc32)n1")
55.4
>>> assay_value("Cn1cc(-c2nnc(NCc3ccc4ccccc4c3)o2)cn1")
11.2
>>> assay_value("CCc1nnc(Oc2cccnc2)c(C#N)c1CC")
30.5
>>> assay_value("CCOc1cccc(CNCCc2c[nH]c3ccccc23)c1")
73
>>> assay_value("Cc1cc(C)c(NC(=O)Cn2nnn(-c3cccs3)c2=O)c(C)c1")
0.77
>>> assay_value("Cc1nc(-c2ccccc2)c(C(=O)Nc2ccccc2)s1")
0.9
>>> assay_value("Cc1cc(-c2nccs2)nc(CC2CCNCC2)n1")
36.5

###

In this section, each of the molecules is paired with its reported intrinsic clearance, human liver microsomes.
Observable: intrinsic clearance, human liver microsomes

>>> assay_value("CN(CCc1ccccn1)C(=O)Nc1nncs1")
"≤ 4.74 mL/min/kg"
>>> assay_value("NC1CCCC1C(=O)N1CCC(c2c[nH]c3ncccc23)CC1 (stereo not given)")
"≤ 4.74 mL/min/kg"
>>> assay_value("Cc1cc(C(=O)N(C)c2nc3ccccc3s2)cc(O)n1")
"≤ 4.74 mL/min/kg"
>>> assay_value("COc1cccc(NC(=O)C2CNC2)c1")
"≤ 4.74 mL/min/kg"
>>> assay_value("O=C(Nc1nc2cccc(-c3ccc(CN4CCS(=O)(=O)CC4)cc3)n2n1)C1CC1")
"≤ 4.74 mL/min/kg"
>>> assay_value("Cc1[nH]c2ccc(Cl)cc2c1CC(=O)N1CCC(Cc2ncncc2C(N)=O)CC1")
"357 mL/min/kg"
>>> assay_value("O=C(Nc1ccn(CC(F)F)n1)NC1CCN(C2CCCC2)CC1")
"≤ 4.74 mL/min/kg"
>>> assay_value("CNCc1cc(N(C)C)nc(C2CCCN2C(=O)c2ccccc2-c2ccccc2)n1 (stereo not given)")
"30.8 mL/min/kg"
>>> assay_value("CCc1ccc(CNc2nncs2)o1")
"7.77 mL/min/kg"
>>> assay_value("COc1ccccc1-n1ncc2c(=O)[nH]c(SC(C)c3ccccc3)nc21 (stereo not given)")
"224 mL/min/kg"

###

Rule: 1.0 for MDR1-MDCK efflux ratio not less than 3, 0.0 for anything less.

>>> label("COc1ccccc1Oc1c(NS(=O)(=O)c2ccc(C(C)(C)C)cc2)nc(-c2ncccn2)nc1OCCO")
1.0
>>> label("Cc1cccc(Oc2ncccc2N)c1C")
0.0
>>> label("CCSCCC(=O)NCCn1nc(C)c(CC)c1C")
0.0
>>> label("CCn1cnnc1CN(C)C1CCN(c2ccccc2F)CC1")
0.0
>>> label("CC(C)Cn1c(=O)[nH]c(=O)c2c1nc1n2CCCCC1")
1.0

###

In this section, each of the molecules is paired with its reported intrinsic clearance, rat liver microsomes.
Observable: intrinsic clearance, rat liver microsomes

>>> assay_value("c1cc(CC2CCNCC2)c2cccnc2c1")
"141 mL/min/kg"
>>> assay_value("CC(=O)Nc1ncc(CN2CCCC[C@@H]2C)s1")
"14.1 mL/min/kg"
>>> assay_value("O=C(Nc1cc[nH]n1)c1ccc2c(c1)[nH]c(=O)n2C1CCCC1")
"53.5 mL/min/kg"
>>> assay_value("COc1cc(Nc2cc(-c3cccc(C#N)c3)ccn2)ccc1N1CCN(C)CC1")
"198 mL/min/kg"
>>> assay_value("O=C(O)CCn1c2ccccc2c2ccccc21")
"11.4 mL/min/kg"
>>> assay_value("Cc1nnc(NCC(=O)N2CCc3sccc3C2)c(C#N)c1C")
"267 mL/min/kg"
>>> assay_value("COc1cc(-c2cn(C3CCc4c(F)cccc4N(CC(F)(F)F)C3=O)nn2)ccc1-n1cnc(C)c1 (stereo not given)")
"49.2 mL/min/kg"
>>> assay_value("C=CCNc1ncc(-c2cnccn2)c(C2CC2)n1")
"734 mL/min/kg"
>>> assay_value("O=C(c1sc(N2CCOCC2)nc1-c1ccccc1)N1CCCCC1")
"845 mL/min/kg"
>>> assay_value("Cn1cccc(C(=O)NCc2nc(C(C)(C)C)no2)c1=O")
"137 mL/min/kg"
>>> assay_value("CC(C)NC(=O)COc1cccc(-c2nc(Nc3ccc4[nH]ncc4c3)c3ccccc3n2)c1")
"1560 mL/min/kg"
>>> assay_value("CCn1nc(C2CCCC2)nc1-c1ccncc1")
"370 mL/min/kg"
>>> assay_value("Cc1nc(C)c2c(C)c(C(=O)N(C)CCN3CCCC3)sc2n1")
"77.8 mL/min/kg"
>>> assay_value("c1ccc(-c2noc(C3CCNCC3)n2)nc1")
"≤ 10.7 mL/min/kg"
>>> assay_value("CCN1CCC(N(C)c2ncnc3c2cnn3C)CC1")
"37 mL/min/kg"

###

Observable: intrinsic clearance, rat liver microsomes

>>> assay_value("c1ccc2c(N3CCn4c(nnc4C4CC4)C3)ncnc2c1")
"≤ 10.7 mL/min/kg"
>>> assay_value("COc1ccc(CNC(=O)c2cc(-c3cncc(C)c3)ncc2-c2nccs2)nc1OC")
"125 mL/min/kg"
>>> assay_value("CC(=O)Nc1cc(CCC2CCNCC2)ccn1")
"≤ 10.7 mL/min/kg"
